# Assay Explanation: yeast display, Sf9 membrane polyspecificity reagent, FACS + sequencing; frameworks hold sequencing errors
Measured Quantity: polyreactivity (PSR sort gate)

Sequence	Measured Quantity	Result
QVQLVESGGGLVQAGGSLRLSCAASGFIFRFYAMGWYRQAPGKERELVAAISSDGSTNYADSVKGRFTISRDNAKNTVYLQMNSLKPEDTAVYYCNADYYEYYSGPTLVVYIYGYWGQGTQVTVSS	polyreactivity (PSR sort gate)	low polyreactivity
QVQLVESAGCLVQAGGSLRLSCAASGSIISAYARGWYRQAPGKERQLVAAITRSGGSTYYADSVKGRFTISRDYAKITVYLQMNSLKPEDTAVYYCAARSYVHVFVRMYYWGQGTQVTVSS	polyreactivity (PSR sort gate)	high polyreactivity
QVQLVESRGGLVQAGGSLRLSCPDSGITLSEYAMGWYRQAPGKERELVATISWRGGTTYYADSVKGLFTISRDNAKNTVSLQMIILNPEDTAVYYCAASWWSFGCYTWKAYDYWGQGTQVTVSS	polyreactivity (PSR sort gate)	high polyreactivity
QVQLVESGGGLVQAGGSLRLSCAASGSTFAKNAMGVYRQAPGKERELVAAISRGGNTYYADSVKGRFTISRDNAKITVYLLMNSLKPEDTAVYYCAARYLFRSLNMDYWGQVTQVTVSS	polyreactivity (PSR sort gate)	high polyreactivity
QVQLVESVGGLDQAGGSLRLSGAASGIIFEGNALGWYRQAPGKERELVAAITSRGTRTYYADSVKGRFTISRDHAKNTVYLQMNSLKPEDTAVYYCAKLTSVTGKSGRYGYEYWGQGTQVTVSS	polyreactivity (PSR sort gate)	high polyreactivity
QVQLVESGGGLVQAGGSLRLSCAASGFIFNIYAMGWYRQAPGKERELVAAITDDGSTNYADSVKGRFTISRDNAKNTVYLQMNSLKPEDTAVYYCAADDYYKFDYWGQGTQVTVSS	polyreactivity (PSR sort gate)	low polyreactivity
QVQLVESGGGLVQAGGSLRLSCAASGRTFQTYAMGWYRQAPGTERELVAAISSDGSTYYADSVKGRFTISRDNATNTVYFQMHSLKPEDTAVYYRNTAIGDKYDYHVRVDYEYWGQGTQVTLSS	polyreactivity (PSR sort gate)	low polyreactivity
QVQHVESGGGLVQAGGSLRLSCAASGSIFLLYAMGCYSQAPGKERELVAAISTRDGSTYYADSVKGRFTISRDNAKNTVYLQMNSLKPEDTAVYYCATLYSYNYWGQGTQVTVSS	polyreactivity (PSR sort gate)	high polyreactivity
QVQLVESGGGLDQAGGSLRLSCAASGSIFDANAMVWYRQAPGKERELVAAITSSGGITYYADSVKGRFTISRDNAKNTVYLHLNSLKPADTAVYYCAAEYGYIDYSYLYWYDYWGQGTQVTVSS	polyreactivity (PSR sort gate)	high polyreactivity
QVQLVESGGGLVQAGGSLRLICDASGSTFAVYTMGLYIQAPGTEREFVAAISSTGTCTYYADSVKGRFTISRDHAKNTVYLQKNSLKPEDTAVYYCAARWLGYRISYDYWGQGTQVTVSS	polyreactivity (PSR sort gate)	high polyreactivity
QVQLVESGGGLVQAGGSLRLSCAASGSTFVYYAKGWYRQAPGKEREFVAAISISTGSTYYADSVKGRFTISRDNAKNTVYLQMNSLKPEDTAVYYCAVDWFLGGYDDLDYWGQGTQVTVSS	polyreactivity (PSR sort gate)	low polyreactivity
QVQLVESGGFLDQAGGSLRLSCAASGFTFYYYAMGWYRQAHAKERELVAAITARGVSTYYADSVKGRFTISRDNAKNTVYLQMNRLNPEDTAVYYCAKRRYYYAPAIPGYYYWGQGTKVTVSS	polyreactivity (PSR sort gate)	high polyreactivity
QVQLVESGGGLVQAGGSLRLSCAASGFIFYRYAMGWYRQAPGKERELVAAITGGGSTYYADSVKGRFTISRDNAKNNFYLQMNSLKPEDTAVYYCAARKRYWFTPYDYWGQGTQVTVSS	polyreactivity (PSR sort gate)	high polyreactivity
QVQLVESGGGLVQAGGSLRLSCAASGRIFRGYTMGWYRQAPGKERELVAAIRSGSRTNYADSVKGRFTISRDNAKNTVYLQMNSLKPEDTAVYYCAADSGYGRPYYYWGQGTQVTVSS	polyreactivity (PSR sort gate)	high polyreactivity
QVQLVESGGGLVQAGGSLRLSCAASGYTFSFYAMGWYIQAPGKERELVATISWRGGSTYYADSVKGRFTISRDNAKNTVYLQMNSLKPEDTAVYYCNIVDKTGSKMDYWGQGTQVTVSS	polyreactivity (PSR sort gate)	high polyreactivity
QVQLVESVGGLVQAGGSLRLSCAASGSTFWYNAMGWYRLAPGKERELVAAISQSGGRTYYADSVKGRFTISRDNAKNTVYLQMNSLKPEDTAVYYCNAVSRDKSLYDYWGQGTQVTVSS	polyreactivity (PSR sort gate)	high polyreactivity
QVQLVESGGGLVQAGGSLRLSCAASGGTLRGYAMGGYRQAPGKEREFDATISRRGGSTYYADSVKGRFTNSRDNAKNTVYLQMNSLKPEDTAVYYCAKQGQSDYYSWGQGTQVTVSS	polyreactivity (PSR sort gate)	high polyreactivity
QVQLVESGGGLVQAGGSLRLSCAASGIIFYDYAMGWYRQAPGKERELVAAITSNGDNTYYADSVKGRFTISRDNAKNTVYLQMNSLKPEDTAVYYCDVDGSFAADFDNYLEEYGYWGQGTQVTVSS	polyreactivity (PSR sort gate)	low polyreactivity
QVQLVESGGGLVQAGGSLRLSCAASGSTVYTNAMGWYRQAPGKERELVAAISSSGDSTYYADSVKGRFTISRDNAKNTVYLQMNSLKPEDTAVYYCAADKYLSYDFWGQGTQVTVSS	polyreactivity (PSR sort gate)	low polyreactivity
QVQLVESGGGLVQAGGSLRLSCAASGFIFSYYAMGWYRQAPGKERELVAAISGRGGSTYYADSVKGRFTISRDNAKNTVYLQMNSLQPEDTAVYYCAADSPWGGGYFVLYNYWGQGTQVTVSS	polyreactivity (PSR sort gate)	low polyreactivity
QVQLVESGGGLVQAGGSLRLSCAASGNIFPRYAMGWYRQATGKERELVAAITWRTSSTYYADSVKGRFTISRDNAKNTVYLQMNSLKPEDTAVYYCAKTSSRIAGEYWGQGTQVTVSS	polyreactivity (PSR sort gate)	low polyreactivity

----------
# Assay Explanation: yeast display, Sf9 membrane polyspecificity reagent, FACS + sequencing; frameworks hold sequencing errors

Sequence	polyreactivity (PSR sort gate)
QVQLVESGGGLVQAGGSLRLSCAASGRTFPYNAMGWYRQAPGKERELVAAISYSGGRTYYADSVKGRFTISRDNAKNTVYLLMNSLKPEDTAVYYCNALGSGREDDYWGQGTQVTVSS	high polyreactivity
QVQLVESGGGLVQAGGSLRLSCAASGFTFYDYAMGWYRQAPGKERELVAAISWDGDRTYYADSVNGRFTISRDNAKNTVYLQMNSLKPEDTAVYYCNAEYSSFSDVQKDSDMDYWGQGTQVTVSS	low polyreactivity
QVQLVESGGGLVQAGGSLRLSCAASGLIFGYYAMGWYRQAPGKERELVAVISYSGGSTYYADSVKGRFTITRDNAKNTVYLQMNSLNPEDTAVYYCNTYGAYYRHTKEYGYWGQGTQVTVSS	high polyreactivity
QVQLVESGGGLVQAGGSLSFSCAASGSIFDYNAMGWYRQAPGKERELVADIRGIGGSTYYADSVKGRFTISRDNAKNTFYLQMNSLIPEDTAVYYCNTSTLGGYYWGQGTQVTVSS	low polyreactivity
QVQLVESGGGLVQAGGSLRLSCAASGRIFTNNAMGWYRQAPGKERELVAAITRGGTTNYADSVKGRFTISRDNAKNTVYLHMNSLKPEDTAVYFCARAGAHPWWSRSTMYYWGQGTQVTVSS	low polyreactivity

----------
# Assay Explanation: yeast display, Sf9 membrane polyspecificity reagent, FACS + sequencing; frameworks hold sequencing errors

Sequence	polyreactivity (PSR sort gate)
QVQLVESGGGLVQAGGSLRLSCAASGLIFAQYAMGWYRQAPGKEREFVAAISYSGGNTYYADSVKGRFTISRDNAKNTVYLQMNSLKPEDTAVYYCAADYYWYHYAGWVGQYGYWGQGTQVTVSS	low polyreactivity
QVQLVESGGGLVQAGGSLRLICAACGFTLTGYTMGWYRQAPGKERELVAAITSRGGTTYYADSVKGRFTISRDNAKYTVYLQMNSLKPEDTAVYYCNVVYPYLEYDYWGQGTQVTVSS	high polyreactivity
QDQLVESGGGLVQAGGSLRLSCAASGRIFAGYTMGWSRQAPGKERELVAAISWSGGRTYYADSVKGRFTISRDNAKNTVYLQMNSLKPEDTAVYYCNIVGWYHNYYYWGQGTQVTVSS	high polyreactivity
QGQLVESGEGLVQAGGSLRLRCAASGSIIRYYTMGGYRQAPGKERELVAAISWSGGSTYYADSVKGRFTISRDNANNTVYLQMNSLKPEETSVYYCNAVSFAYNPYSATYDYWGQGTQVTVSS	high polyreactivity
QVQLVESGGGLVQAGGSLRLSCAASGRIFVYYAMGWYRQAPGKEMELVASISYSGASTYYADSVKGRFTISRDNAKNTVYLQMNSLKPEDTAVYYCNTDGDDFFHVIYDYWGQGTQVTVSS	low polyreactivity
